The entries below come with measured IC50 values attached.
SYSTEM_UNDER_TEST: human NaV 1.7 (Homo sapiens, UniProt Q15858)
Sequence (Q15858 whole entry): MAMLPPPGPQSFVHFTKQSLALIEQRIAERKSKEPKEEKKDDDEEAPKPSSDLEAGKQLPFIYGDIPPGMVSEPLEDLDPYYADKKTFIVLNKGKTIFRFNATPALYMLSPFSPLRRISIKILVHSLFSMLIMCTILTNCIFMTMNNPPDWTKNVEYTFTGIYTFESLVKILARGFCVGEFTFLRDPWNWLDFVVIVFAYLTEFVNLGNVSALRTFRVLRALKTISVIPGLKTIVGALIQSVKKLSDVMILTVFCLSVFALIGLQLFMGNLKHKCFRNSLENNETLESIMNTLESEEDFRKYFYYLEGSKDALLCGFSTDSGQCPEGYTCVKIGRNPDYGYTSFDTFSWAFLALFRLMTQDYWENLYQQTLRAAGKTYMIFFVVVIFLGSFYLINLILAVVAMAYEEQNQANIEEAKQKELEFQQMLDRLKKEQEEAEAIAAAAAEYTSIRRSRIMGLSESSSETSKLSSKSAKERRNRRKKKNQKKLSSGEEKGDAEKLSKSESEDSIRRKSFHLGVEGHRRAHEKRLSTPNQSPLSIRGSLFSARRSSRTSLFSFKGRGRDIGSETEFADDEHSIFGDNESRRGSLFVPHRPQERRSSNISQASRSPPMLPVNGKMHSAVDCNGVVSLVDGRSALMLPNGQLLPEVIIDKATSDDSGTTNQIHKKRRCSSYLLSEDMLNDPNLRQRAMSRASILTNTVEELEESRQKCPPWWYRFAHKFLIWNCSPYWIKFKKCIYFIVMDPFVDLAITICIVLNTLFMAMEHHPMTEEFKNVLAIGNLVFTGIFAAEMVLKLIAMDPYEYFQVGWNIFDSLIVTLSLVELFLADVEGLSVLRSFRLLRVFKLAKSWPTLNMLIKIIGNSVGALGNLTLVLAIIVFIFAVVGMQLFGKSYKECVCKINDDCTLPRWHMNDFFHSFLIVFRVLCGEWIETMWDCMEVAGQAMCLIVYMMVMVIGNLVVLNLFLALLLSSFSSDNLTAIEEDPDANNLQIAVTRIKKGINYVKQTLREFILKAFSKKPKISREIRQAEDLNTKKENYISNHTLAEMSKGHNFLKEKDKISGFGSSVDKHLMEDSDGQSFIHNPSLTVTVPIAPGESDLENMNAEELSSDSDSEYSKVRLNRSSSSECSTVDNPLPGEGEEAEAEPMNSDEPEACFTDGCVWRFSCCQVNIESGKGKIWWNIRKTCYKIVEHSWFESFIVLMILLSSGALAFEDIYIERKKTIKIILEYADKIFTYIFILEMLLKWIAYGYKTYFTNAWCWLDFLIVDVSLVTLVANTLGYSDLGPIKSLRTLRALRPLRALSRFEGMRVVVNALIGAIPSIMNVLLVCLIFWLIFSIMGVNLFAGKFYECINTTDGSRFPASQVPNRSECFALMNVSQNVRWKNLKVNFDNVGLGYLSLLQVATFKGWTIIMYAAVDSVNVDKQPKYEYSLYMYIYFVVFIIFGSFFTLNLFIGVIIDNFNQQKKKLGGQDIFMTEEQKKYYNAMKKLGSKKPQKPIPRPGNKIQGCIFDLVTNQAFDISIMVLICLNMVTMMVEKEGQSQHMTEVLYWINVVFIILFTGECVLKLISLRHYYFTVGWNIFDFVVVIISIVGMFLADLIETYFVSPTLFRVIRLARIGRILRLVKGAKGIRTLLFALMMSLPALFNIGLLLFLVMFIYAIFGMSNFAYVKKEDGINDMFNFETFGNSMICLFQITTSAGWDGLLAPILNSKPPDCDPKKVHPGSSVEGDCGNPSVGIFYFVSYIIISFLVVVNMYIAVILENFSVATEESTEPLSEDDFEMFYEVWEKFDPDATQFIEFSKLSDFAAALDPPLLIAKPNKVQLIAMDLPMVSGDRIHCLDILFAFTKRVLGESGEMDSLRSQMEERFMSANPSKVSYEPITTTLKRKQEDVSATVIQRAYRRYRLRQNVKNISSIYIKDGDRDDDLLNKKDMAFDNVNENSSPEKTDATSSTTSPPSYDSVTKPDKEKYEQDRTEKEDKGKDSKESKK
EXPERIMENT: E-VIPR optical membrane potential assay with electrical stimulation
CONDITION_SET: sodium channel inhibition; read-out: Binned Activity Data (IC50)

- CCn1ncc2c1-c1cc(F)ccc1OC21CCN(C(=O)c2ccccc2OC)CC1: 2000 to 5000 nM
- COc1cc(C(=O)N2CCC3(CC2)Oc2cc(Cl)ccc2-n2cccc23)ccc1OC[C@@H]1COC(C)(C)O1: ≤ 2000 nM
- Cc1cc(C(=O)N2CCC3(CC2)Oc2cc(Cl)ccc2-n2cccc23)ccc1C(C)(C)O: ≤ 2000 nM

Query string: # input compound: `COc1cc(C(=O)N2CCC3(CC2)Oc2cc(Cl)ccc2-n2cccc23)ccc1C(C)(C)C` ; wanted: its IC50
Result string: ≤ 2000 nM

Query string: Same again, this time with `Cn1ncc2c1-c1ccc(Cl)cc1OC21CCN(C(=O)c2cccc(F)c2OC(F)F)CC1`
Result string: ≤ 2000 nM

Query string: Input `Cn1cc2c(n1)-c1ccccc1OC21CCN(C(=O)c2ccc(S(=O)(=O)NC3CC3)cc2)CC1`
Result string: ≤ 2000 nM

Query string: Likewise for `CCCOc1ccc(C(=O)N2CCC3(CC2)Oc2cc(F)ccc2-n2cccc23)cc1C(F)(F)F` ?
Result string: ≤ 2000 nM

Query string: Also need `COc1cc(C(=O)N2CCC3(CC2)Oc2ccc(F)cc2-c2nn(C)cc23)ccc1OC(C)C` , thanks.
Result string: ≤ 2000 nM

Query string: `Cc1c(F)cccc1C(=O)N1CCC2(CC1)Oc1ccccc1-c1c2cnn1C` , same question.
Result string: ≤ 2000 nM

Query string: Ok, now `O=C(c1ccc(OC2COC2)c(F)c1)N1CCC2(CC1)Oc1cc(Cl)ccc1-n1cccc12`
Result string: ≤ 2000 nM

Query string: Next entry: `Cc1ccccc1C(=O)N1CCC2(CC1)Oc1ccccc1-c1c2cnn1C`
Result string: 2000 to 5000 nM

Query string: Please answer likewise for `Cc1ccc(C(=O)N2CCC3(CC2)Oc2ccccc2-n2c(C(F)(F)F)ccc23)nc1`
Result string: > 5000 nM

Query string: What would you report for `N#Cc1ccc2n1-c1ccccc1OC21CCN(C(=O)c2ccc(OCCO)cc2)CC1` ?
Result string: ≤ 2000 nM

Query string: Try this compound next: CC(C)(C)[S+]([O-])c1ccc(C(=O)N2CCC3(CC2)Oc2ccccc2-n2c(C(F)(F)F)ccc23)cc1 (stereo not shown)
Result string: 2000 to 5000 nM

Query string: Would you mind doing `Cn1ncc2c1-c1ccccc1OC21CCN(C(=O)c2ccccc2NS(C)(=O)=O)CC1` as well?
Result string: 2000 to 5000 nM

Query string: Ok, now `Cc1cc(C(=O)N2CCC3(CC2)Oc2cccc(C)c2-n2cccc23)ccc1OC(C)C`
Result string: ≤ 2000 nM

---

# pIC50 values compiled below
SYSTEM_UNDER_TEST: human NaV 1.7 (Homo sapiens, UniProt Q15858)
EXPERIMENT: E-VIPR optical membrane potential assay with electrical stimulation
CONDITION_SET: sodium channel inhibition; read-out: Binned Activity Data (IC50)
pIC50: −log10 of the molar value.

Use the examples below as a reference point.
• COc1cc(C(=O)N2CCC3(CC2)Oc2ccccc2-n2c3ccc2S(C)(=O)=O)ccc1OC(C)C = ≥ 5.70
• Cn1cc2c(n1)-c1ccccc1OC21CCN(C(=O)c2cccc(F)c2OC(F)F)CC1 = ≥ 5.70
• Cc1cc(C(=O)N2CCC3(CC2)Oc2cc(F)ccc2-n2cccc23)ccc1C#N = ≥ 5.70
• COc1ccc(C(=O)N2CCC3(CC2)Oc2cc(F)ccc2-n2cccc23)cc1C(F)(F)F = ≥ 5.70
• COc1cc(C(=O)N2CCC3(CC2)Oc2cc(Cl)ccc2-n2cccc23)ccc1OC[C@H](O)CO = ≥ 5.70
• COc1cc(S(=O)(=O)C(C)C)ccc1C(=O)N1CCC2(CC1)Oc1ccccc1-c1c2cnn1C = ≥ 5.70

Query string: Given the entry `O=C(c1ccc(O[C@@H]2CCOC2)c(C(F)(F)F)c1)N1CCC2(CC1)Oc1ccccc1-n1cccc12` , report its measured pIC50.
Result string: ≥ 5.70

Query string: Queued: `Cn1cc2c(n1)-c1ccccc1OC21CCN(C(=O)c2ccc(C(C)(C)O)c(CO)c2)CC1`
Result string: < 5.30

The origin of these recorded values is patent US9365588B2.
